# PROTOCOL SUMMARY: Stability and conversion in simulated gastric fluid
# Format: in vitro ADME
# STATED CONDITIONS: 4 h, 37° C.
Record form. Attribute: Stability in Gastric fluids, Remaining. Fill in for each entry.
Just the number please, in %, no unit attached.

Query: What does the data say about its Stability in Gastric fluids, Remaining? Entry: CCCCOC(=O)OC1CN(CCCCCCN(C(=O)NC(C)(C)C)C2CCCCC2)C(CO)C(O)C1OC(=O)OCCCC (stereo not shown)
Reply: 93

Query: What does the data say about its Stability in Gastric fluids, Remaining? Entry: CC(C)COC(=O)OC1CN(CCCCCCN(C(=O)NC(C)(C)C)C2CCCCC2)C(CO)C(O)C1O (stereo not shown)
Reply: 89.2

Query: What does the data say about its Stability in Gastric fluids, Remaining? Entry: CCCCOC(=O)OC1CN(CCCCCCN(C(=O)NC(C)(C)C)C2CCCCC2)C(CO)C(O)C1O (stereo not shown)
Reply: 98.1

Query: What does the data say about its Stability in Gastric fluids, Remaining? Entry: CC(NC(=O)OC(C)(C)C)C(=O)OC1C(O)CN(CCCCCCN(C(=O)NC(C)(C)C)C2CCCCC2)C(CO)C1O (stereo not shown)
Reply: 81.1

----------
# PROTOCOL SUMMARY: Stability and conversion in simulated intestinal fluids
# Type: in vitro ADME
# STATED CONDITIONS: 4 h, 5 μM, 37° C.
# Procedure: The stability of exemplary compounds of the present invention and their conversion to active derivatives in simulated intestinal fluids is evaluated. The working solutions of test compounds and control compound chlorambucil were prepared in DMSO at the concentration of 500 μM. 2 μL of the working solution and 198 μL of simulated intestinal fluids were added into centrifuge tubes to achieve a final concentration of 5 μM, and incubated at 37° C. water bath with shaking at approximately 60 rpm. […]
OBSERVABLE: Stability in Intestinal Fluid, Remaining (%)
Just the number please, in %, no unit attached.

Query: What does the data say about its Stability in Intestinal Fluid, Remaining? Entry: CCCCOC(=O)OC1CN(CCCCCCN(C(=O)NC(C)(C)C)C2CCCCC2)C(CO)C(O)C1OC(=O)OCCCC (stereo not shown) [XXVII(a)]
Reply: 65.7

Query: What does the data say about its Stability in Intestinal Fluid, Remaining? Entry: CCCCOC(=O)OC1CN(CCCCCCN(C(=O)NC(C)(C)C)C2CCCCC2)C(CO)C(O)C1O (stereo not shown) [XXVIII(a)]
Reply: 62.7

Query: What does the data say about its Stability in Intestinal Fluid, Remaining? Entry: CC(NC(=O)OC(C)(C)C)C(=O)OC1C(O)CN(CCCCCCN(C(=O)NC(C)(C)C)C2CCCCC2)C(CO)C1O (stereo not shown) [XXX(a)]
Reply: 30.7

Query: What does the data say about its Stability in Intestinal Fluid, Remaining? Entry: CC(C)COC(=O)OC1CN(CCCCCCN(C(=O)NC(C)(C)C)C2CCCCC2)C(CO)C(O)C1O (stereo not shown) [XXVIII(b)]
Reply: 70.9
